Target: T1, Recombinant human PSGL-1(ECD)-hFc1 (R&D Systems, Cat. 3345-PS) (human, UniProt Q14242 42-305)
T1 construct: Bought; Gln42-Val295 counted on AAC50061; also called PSGL-1-Fc; PSGL-1-hFc1 chimera; not shown: human IgG1 Fc, Pro100-Lys330
T1 sequence: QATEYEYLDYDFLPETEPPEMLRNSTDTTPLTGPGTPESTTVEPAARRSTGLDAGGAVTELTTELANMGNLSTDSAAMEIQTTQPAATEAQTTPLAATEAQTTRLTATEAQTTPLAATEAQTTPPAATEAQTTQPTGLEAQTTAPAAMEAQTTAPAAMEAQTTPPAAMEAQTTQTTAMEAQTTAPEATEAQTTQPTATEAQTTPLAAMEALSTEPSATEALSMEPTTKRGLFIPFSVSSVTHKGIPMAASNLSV
Experiment: blocking ELISA vs L-selectin-Fc
Documented % max Block across a set of binders

BINDER: 43B6 (antibody, V domains shown, Control anti-PSGL-1 mAb, recombinant; only variable domains given; also called 43B3) VH: EVQLQQSGPDLVKPGALVKISCKASGYSFTAYYIHWVKQSHGKSLEWIGRVNPNTGGTSYNPKFKGKAILNVDKSSSTAYMELRSLTSEDSAVYYCARSGSPYYRYDDWGQGTTLTVSS VL: ENVLTQSPAIMSASPGEKVTMTCRASSTVNSTYLHWFQQKSGASPKLWIYGSSNLASGVPARFSGSGSGTSYSLTISSVEAEDAATYYCQQYSGYPLTFGAGTTLELK
% max Block, %: 100
//
BINDER: 19L04 (antibody, IgG4, V domains shown, From mouse immunisation; only variable domains given) VH: QIQLVQSGPELKKPGETVKISCKASGYTFTTYGMSWVKQAPGKGLKWMGWINTYSGVPTYADDFKGRFAFSLETSASTAYLQINNLKIEDTATYFCARHYYGSHYFDYWGQGTTLTVSS VL: DIMMTQSPSSLAMSVGQKVTLRCKSSQSLLNSSNQKNYLAWYQQKPGQSPKLLVYFASTRESGVPVRFIGSGSGTDFTLTISSMQAEDLADYFCQQHYFSPLTFGAGTKLELK
% max Block, %: 0
//
BINDER: 16L15 (antibody, V domains shown, From mouse immunisation; only variable domains given) VH: DVKLVESGGGLVKLGGSLKLSCAASGFTFSSYYMSWVRQTPEKRLEWVATISNGGGSTYYPDSVKDRFTISRDNAKNTLYLQMSSLNSEDTAVYYCAKPLYYSNPWFAYWGQGTLVTVSA VL: DVLLTQTPLSLPVSLGDQASISCRSSQSIVHSNGNTYLEWYLQKPGQSPKLLIYKVSNRFSGVPDRFSGSGSGTDFTLKISRVEAEDLGVYYCFQGSHVPRTFGGGTKLEIK
% max Block, %: 100
//
BINDER: 10F01 (antibody, IgG4, V domains shown) VH: EVQLVQSGGGLVQPGGSLRLSCAASGFTFSSYAMSWVRQAPGKGLEWVSALRGGDGGTYHADSVKGRFTISGDSSKNTLYLQMNSLRAEDTAVYYCARRMVGAAYAFDIWGQGTMVTVSS VL: LPVLTQPHSVSESPGKTVTISCTRSSGSIADNFVQWYRQRPGSAPTTVIYEGDQRPSGVPGRFSGSIDSSSNSASLTISGLQTDDEADYYCQSFDSYNRRTHVVFGGGTKLTVL
% max Block, %: 100

Measured values drawn from patent US20220396632A1 for this set.
